B1: CCND1 (parent)
chain: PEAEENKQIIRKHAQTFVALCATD

variants of: B1; assay: protein stability index of a GFP-peptide fusion (GPS, HEK-293T) (PSI 1-6); higher = more stable; conditions: c terminus: a fixed tail appended;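 further: lentivirally expressed fusions sorted by FACS into six bins by GFP to DsRed ratio, PSI derived from sequencing read proportions per bin multiplied by bin number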

- Variant Name: "R11D"
  protein stability index: 4.11
- Variant Name: "E5D"
  protein stability index: 2.93
- Variant Name: "Q15H"
  protein stability index: 2.97
